# SYSTEM NAME: Jak2 (UniProt O60674)
# Sequence (O60674 whole entry, looked up): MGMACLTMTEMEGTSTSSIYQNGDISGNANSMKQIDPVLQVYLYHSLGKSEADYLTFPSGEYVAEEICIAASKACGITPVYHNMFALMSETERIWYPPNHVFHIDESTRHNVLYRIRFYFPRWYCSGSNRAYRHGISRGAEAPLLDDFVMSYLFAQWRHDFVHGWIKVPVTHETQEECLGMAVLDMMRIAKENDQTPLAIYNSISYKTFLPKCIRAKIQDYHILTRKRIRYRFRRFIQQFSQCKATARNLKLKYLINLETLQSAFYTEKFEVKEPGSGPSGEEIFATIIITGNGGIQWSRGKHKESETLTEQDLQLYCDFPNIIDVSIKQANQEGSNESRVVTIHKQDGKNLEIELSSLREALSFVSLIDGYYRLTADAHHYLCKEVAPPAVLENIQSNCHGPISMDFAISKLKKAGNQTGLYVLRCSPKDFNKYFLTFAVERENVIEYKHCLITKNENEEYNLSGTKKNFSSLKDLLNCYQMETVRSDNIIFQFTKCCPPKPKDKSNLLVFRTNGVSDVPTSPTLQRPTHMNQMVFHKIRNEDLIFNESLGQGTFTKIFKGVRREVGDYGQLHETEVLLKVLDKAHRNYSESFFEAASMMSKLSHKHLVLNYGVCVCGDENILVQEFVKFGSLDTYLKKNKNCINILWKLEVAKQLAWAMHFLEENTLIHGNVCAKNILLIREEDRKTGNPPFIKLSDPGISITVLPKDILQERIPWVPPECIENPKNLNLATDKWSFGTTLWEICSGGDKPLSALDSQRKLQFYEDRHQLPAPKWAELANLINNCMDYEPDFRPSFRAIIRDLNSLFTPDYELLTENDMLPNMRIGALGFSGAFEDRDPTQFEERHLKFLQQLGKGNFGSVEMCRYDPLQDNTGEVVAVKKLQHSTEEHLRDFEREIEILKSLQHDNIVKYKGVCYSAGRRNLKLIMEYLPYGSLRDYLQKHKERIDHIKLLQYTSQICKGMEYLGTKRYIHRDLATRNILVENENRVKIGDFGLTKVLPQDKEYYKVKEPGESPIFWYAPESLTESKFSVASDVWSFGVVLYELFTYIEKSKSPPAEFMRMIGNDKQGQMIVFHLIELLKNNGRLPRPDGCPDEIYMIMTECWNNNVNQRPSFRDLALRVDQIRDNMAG
# EXPERIMENTAL PROTOCOL: phosphorylation enrichment, bacterial display (enrichment ratio); higher = better substrate or ligand; peptides without Tyr show the background;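 note: 11-residue human phosphosite peptides and single-mutation variants displayed on the E. coli surface, counted by deep sequencing, each peptide's frequency after selection divided by its frequency in the unselected input library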;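 note: frequency after pTyr selection over input frequency; kinase dosed for 20-30% of maximal phosphorylation in three min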
RECORDED ENDPOINT: phosphorylation enrichment
Provide a numeric answer; units are not to be included.

These recorded examples may help you get a feel for the data.
CONSTRUCT SEQUENCE	phosphorylation enrichment
CGTPDYIAPEI [PRKCG_Y521]	0.882
LNNIIYRVERA [CUX2_Y1470]	1.22
LEAVSYSSRYA [RNLS_Y190]	0.685

Next:
Lookup: Write down phosphorylation enrichment measured for item SVVVPYERPEV [TP53_Y220_P222R]
Found: 0.846
